Biological target: USP7 (Homo sapiens, UniProt Q93009)
Construct: The USP7 construct was PCR amplified and cloned into a pFLAG-CMV-6a vector (Sigma-Aldrich) with an N-terminal FLAG tag; made in house; host or cells: HEK293T
Sequence (Q93009 whole entry): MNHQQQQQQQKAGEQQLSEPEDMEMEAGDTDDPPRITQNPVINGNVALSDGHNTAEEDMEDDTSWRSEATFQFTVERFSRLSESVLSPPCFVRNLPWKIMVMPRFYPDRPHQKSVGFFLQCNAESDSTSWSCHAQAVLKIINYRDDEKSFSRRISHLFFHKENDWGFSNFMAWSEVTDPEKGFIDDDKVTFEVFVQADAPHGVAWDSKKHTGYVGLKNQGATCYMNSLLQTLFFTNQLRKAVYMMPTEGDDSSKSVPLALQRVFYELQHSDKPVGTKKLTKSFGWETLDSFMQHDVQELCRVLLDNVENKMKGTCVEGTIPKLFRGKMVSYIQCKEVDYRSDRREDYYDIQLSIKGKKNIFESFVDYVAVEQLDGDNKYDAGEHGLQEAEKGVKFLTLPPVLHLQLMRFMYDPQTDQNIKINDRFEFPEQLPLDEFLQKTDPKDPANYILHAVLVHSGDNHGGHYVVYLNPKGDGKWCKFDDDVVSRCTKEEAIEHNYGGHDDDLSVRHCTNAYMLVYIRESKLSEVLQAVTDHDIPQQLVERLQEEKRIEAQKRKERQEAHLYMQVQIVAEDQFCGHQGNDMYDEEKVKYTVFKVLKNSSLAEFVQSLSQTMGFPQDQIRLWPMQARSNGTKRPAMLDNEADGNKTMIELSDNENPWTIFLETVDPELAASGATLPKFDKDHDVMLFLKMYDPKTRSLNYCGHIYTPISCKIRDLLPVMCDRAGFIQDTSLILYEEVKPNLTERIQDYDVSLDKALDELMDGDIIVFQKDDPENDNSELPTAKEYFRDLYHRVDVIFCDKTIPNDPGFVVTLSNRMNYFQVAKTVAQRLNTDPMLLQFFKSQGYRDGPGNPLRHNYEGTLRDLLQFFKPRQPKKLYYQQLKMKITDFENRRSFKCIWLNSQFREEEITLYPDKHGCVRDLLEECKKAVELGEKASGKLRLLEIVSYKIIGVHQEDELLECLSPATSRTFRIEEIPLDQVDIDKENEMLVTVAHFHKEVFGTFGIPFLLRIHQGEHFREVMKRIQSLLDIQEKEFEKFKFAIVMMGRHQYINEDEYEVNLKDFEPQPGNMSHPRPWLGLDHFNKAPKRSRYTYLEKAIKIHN
Test: USP7 biochemical IC50 assay (fluorescence polarisation, TAMRA labelled peptide linked to ubiquitin via an iso-peptide bond)
Settings: 30 min pre-incubation of enzyme and compound, read after 2 hr incubation at room temperature, read-out: IC50 range
Listed here: items and their measured IC50.

Recorded IC50, per entry:
CNC(=O)c1cccc(-c2cc(NC(=O)[C@@H]3CCCN(C)C3)cc3c2CN(C#N)C3)c1 ... 1 to 10 µM
CN1CCC[C@@H](C(=O)Nc2cc3c(c(-c4ccc(C#N)cc4)c2)CN(C#N)C3)C1 ... < 1 µM
CN1CCC[C@@H](C(=O)Nc2cc3c(c(-c4ccc(Cl)cc4)c2)CN(C#N)C3)C1 ... < 1 µM

Determine from records and report IC50 for N#Cc1ccc(-c2cccc3c2CN(C#N)C3)c(C#N)c1
< 1 µM

====

Molecular target: USP7 (Homo sapiens, UniProt Q93009)
Construct: The USP7 construct was PCR amplified and cloned into a pFLAG-CMV-6a vector (Sigma-Aldrich) with an N-terminal FLAG tag; made in house; host or cells: HEK293T
Assay: USP7 biochemical IC50 assay (fluorescence polarisation, TAMRA labelled peptide linked to ubiquitin via an iso-peptide bond)
Conditions: 30 min pre-incubation of enzyme and compound, read after 2 hr incubation at room temperature, read-out: IC50 range
pIC50: −log10 of the molar value.
Listed here: items and their measured pIC50.

Recorded pIC50, per entry:
COC(=O)c1cc2c(c(-c3ccccc3)c1)CN(C#N)C2 [Example 98] ... 5.00 to 6.00
C[C@H](O)c1ccccc1-c1cccc2c1CN(C#N)C2 [Example 71] ... 5.00 to 6.00
COc1cccc(-c2nnc(-c3cnn(C)c3)c3c2CN(C#N)C3)c1 [Example 182] ... 5.00 to 6.00
Cc1cc(C#N)cc(C)c1-c1cccc2c1CN(C#N)C2 [Example 67] ... 5.00 to 6.00
N#CN1Cc2cccc(-c3ccccc3C(=O)N3CCNCC3)c2C1 [Example 78] ... 5.00 to 6.00
CN1CCC(C(=O)Nc2cc3c(c(-c4ccccc4)c2)CN(C#N)C3)CC1 [Example 48] ... > 6.00
N#Cc1ccc(-c2cc(CCc3cccnc3)cc3c2CN(C#N)C3)cc1 [Example 256] ... 5.00 to 6.00
N#CN1Cc2cccc(NC(=O)c3ccc(N4CCOCC4)s3)c2C1 [Example 93] ... 5.00 to 6.00
Cc1cc(C#N)ccc1-c1cccc2c1CN(C#N)C2 [Example 66] ... 5.00 to 6.00
CN1CCCC(CNc2nc3c(c(N4CCc5ccccc5C4)n2)CN(C#N)C3)C1 (stereo not shown) [Example 196] ... 5.00 to 6.00

Determine from records and report pIC50 for COCCc1cc2c(c(-c3ccccc3C(N)=O)c1)CN(C#N)C2 [Example 255]
5.00 to 6.00

Determine from records and report pIC50 for CN(C)C(=O)CCC(=O)Nc1cc2c(c(-c3ccccc3)c1)CN(C#N)C2 [Example 46]
5.00 to 6.00

Determine from records and report pIC50 for CCN1CCOC(C(=O)Nc2cc3c(c(-c4ccccc4)c2)CN(C#N)C3)C1 (stereo not shown) [Example 54]
> 6.00

Determine from records and report pIC50 for N#CN1Cc2cccc(-c3ccnc(C(=O)NCc4ccccc4)c3)c2C1 [Example 79]
5.00 to 6.00

Determine from records and report pIC50 for N#Cc1cc(F)ccc1-c1cccc2c1CN(C#N)C2 [Example 167]
5.00 to 6.00

Determine from records and report pIC50 for Cc1nc2c(c(-c3ccc(F)cc3)n1)CN(C#N)C2 [Example 151]
5.00 to 6.00

Determine from records and report pIC50 for N#Cc1cc(-n2ccnc2)ccc1-c1cccc2c1CN(C#N)C2 [Example 181]
5.00 to 6.00

Determine from records and report pIC50 for N#CN1Cc2cccc(NC(=O)c3csc(-c4ccccc4)n3)c2C1 [Example 84]
4.52 to 5.00

Determine from records and report pIC50 for CS(=O)(=O)Nc1cc2c(c(-c3ccc(C#N)cc3C#N)c1)CN(C#N)C2 [Example 243]
5.00 to 6.00

====

Listed here: items and their measured IC50.
Target: USP7 (Homo sapiens)
Construct: The USP7 construct was PCR amplified and cloned into a pFLAG-CMV-6a vector (Sigma-Aldrich) with an N-terminal FLAG tag; made in house; host or cells: HEK293T
Test: USP7 biochemical IC50 assay (fluorescence polarisation, TAMRA labelled peptide linked to ubiquitin via an iso-peptide bond)
Conditions: 30 min pre-incubation of enzyme and compound, read after 2 hr incubation at room temperature, read-out: IC50 range

Recorded IC50, per entry:
COC(C)(O)CNc1cc2c(c(-c3ccc(C#N)cc3)c1)CN(C#N)C2 (stereo not shown) ... 1 to 10 µM
CC1c2cccc(-c3ccc(C#N)cc3C(N)=O)c2CN1C#N (single isomer, unassigned) ... 1 to 10 µM
CC(=O)Nc1cccc(-c2nc(NCCO)nc3c2CN(C#N)C3)c1 ... 1 to 10 µM
N#CN1Cc2nc(NC(=O)C3CNC(=O)C3)nc(-c3ccccc3)c2C1 (stereo not shown) ... 10 to 30 µM
N#CN1Cc2cccc(-c3ccccc3S(=O)(=O)N3CCC3)c2C1 ... 1 to 10 µM

Determine from records and report IC50 for Cn1nccc1CNc1nc2c(c(-c3cccc(N4CCCC4=O)c3)n1)CN(C#N)C2
1 to 10 µM

Determine from records and report IC50 for N#Cc1ccc(-c2cc(CNC(=O)C3CCOCC3)cc3c2CN(C#N)C3)cc1
1 to 10 µM

Determine from records and report IC50 for N#Cc1ccc(-c2cc(NCCO)cc3c2CN(C#N)C3)cc1
1 to 10 µM

Determine from records and report IC50 for Cn1nccc1CNc1cc(-c2ccc(F)cc2)c2c(n1)CN(C#N)C2
< 1 µM

Determine from records and report IC50 for N#Cc1ccc(-c2cc(NCC(O)CO)cc3c2CN(C#N)C3)cc1 (stereo not shown)
1 to 10 µM

Determine from records and report IC50 for Cc1cc(-c2cccc3c2CN(C#N)C3)c(C(N)=O)cc1C#N
1 to 10 µM

Determine from records and report IC50 for COc1cccc(-c2cc(NC(=O)[C@@H]3CCCN(C)C3)cc3c2CN(C#N)C3)c1
1 to 10 µM

Determine from records and report IC50 for CC(=O)Nc1nc2c(c(-c3ccccc3)n1)CN(C#N)C2
1 to 10 µM

====

Target: USP7 (Homo sapiens, UniProt Q93009)
Construct: The USP7 construct was PCR amplified and cloned into a pFLAG-CMV-6a vector (Sigma-Aldrich) with an N-terminal FLAG tag; made in house; host or cells: HEK293T
Experiment: USP7 biochemical IC50 assay (fluorescence polarisation, TAMRA labelled peptide linked to ubiquitin via an iso-peptide bond)
Details: 30 min pre-incubation of enzyme and compound, read after 2 hr incubation at room temperature, read-out: IC50 range
pIC50: −log10 of the molar value.
experimental_endpoint: pIC50

N#CN1Cc2nc(NCCO)nc(-c3ccccc3)c2C1 [Example 120] ... 5.00 to 6.00
COc1ccccc1-c1nc2c(c(N3CCc4ccccc4C3)n1)CN(C#N)C2 [Example 140] ... 5.00 to 6.00
CN1CCOC(CNc2nc3c(c(N4CCc5ccccc5C4)n2)CN(C#N)C3)C1 (stereo not shown) [Example 197] ... 5.00 to 6.00

Determine from records and report pIC50 for Cn1cc(-c2cccc3c2CN(C#N)C3)cn1 [Example 7]
5.00 to 6.00

Determine from records and report pIC50 for CN1CCC[C@@H](C(=O)Nc2cc3c(c(-c4cccc(C#N)c4)c2)CN(C#N)C3)C1 [Example 27]
> 6.00

Determine from records and report pIC50 for N#CN1Cc2nc(N[C@H]3CC[C@H](O)CC3)nc(-c3ccccc3)c2C1 [Example 110]
5.00 to 6.00

Determine from records and report pIC50 for CN1CCC[C@H](C(=O)Nc2cc3c(c(-c4ccccc4)c2)CN(C#N)C3)C1 [Example 37]
> 6.00

====

Target: USP7 (Homo sapiens, UniProt Q93009)
Construct: The USP7 construct was PCR amplified and cloned into a pFLAG-CMV-6a vector (Sigma-Aldrich) with an N-terminal FLAG tag; made in house; host or cells: HEK293T
Experiment: USP7 biochemical IC50 assay (fluorescence polarisation, TAMRA labelled peptide linked to ubiquitin via an iso-peptide bond)
Settings: 30 min pre-incubation of enzyme and compound, read after 2 hr incubation at room temperature, read-out: IC50 range
pIC50: −log10 of the molar value.
Listed here: items and their measured pIC50.

Recorded pIC50, per entry:
CN1CCN(c2ccc(-c3nc(NCCO)nc4c3CN(C#N)C4)cc2)CC1 [Example 212] ... 5.00 to 6.00
Cc1nc2c(c(-c3cccc(N4CCCC4=O)c3)n1)CN(C#N)C2 [Example 289] ... 5.00 to 6.00
CN1CCC(C(=O)Nc2cc3c(c(-c4ccccc4)c2)CN(C#N)C3)C1 (stereo not shown) [Example 43] ... 4.00 to 4.52
CN(C)C(=O)c1cc2c(c(-c3ccc(C#N)cc3)c1)CN(C#N)C2 [Example 232] ... 5.00 to 6.00
CC(=O)Nc1cccc(-c2nc(NC(C)=O)nc3c2CN(C#N)C3)c1 [Example 108] ... 5.00 to 6.00

Report pIC50 under test system USP7 (Homo sapiens, UniProt Q93009) for N#CN1Cc2nc(NCc3ccccn3)nc(-c3ccccc3)c2C1 [Example 117] .
5.00 to 6.00

Report pIC50 under test system USP7 (Homo sapiens, UniProt Q93009) for N#CN1Cc2nc(Cl)nc(-c3ccccc3F)c2C1 [Example 150] .
4.00 to 4.52

Report pIC50 under test system USP7 (Homo sapiens, UniProt Q93009) for N#CN1Cc2cccc(-c3ccc(Cl)cc3C(N)=O)c2C1 [Example 2] .
5.00 to 6.00
